Data origin: PubChem BioAssay (NCI)

Test system: SF-295 CNS
Measurement Protocol: NCI tumour cell line growth inhibition, 48 h
Property Measured: TGI

• COc1ccc(C2=C(c3cc(OC)c(OC)c(OC)c3)C(=O)OC2)cc1OC = 0.0217 µM
• Cc1n(CC(=O)c2ccccc2)nc2sc(N)n[n+]12 = > 100 µM
• O=C1CC/C(=C\COc2ccc3ccc(=O)oc3c2)O1 = > 100 µM
• Oc1cc(Cl)ccc1Cc1ccc(Cl)cc1O = 24.6 µM
• CC1CCC2(CC1)N=C1CCC(C)CC1C1(CCC(C)CC1)N2 (stereo unspecified) = > 100 µM
• CCS(=O)(=O)c1c2cc(OC)ccc2nc2ccc(OC)cc12 = > 100 µM
• O=C(O)CCCNS(=O)(=O)c1ccc2ccccc2c1 = > 100 µM
• NC(=O)NCCCC(NC(=O)OCCCCCn1ccc(=O)[nH]c1=O)C(=O)O (stereo unspecified) = > 100 µM
• Nc1nc2cc(CNc3ccc(C(=O)NC(CCC(=O)O)C(=O)O)cc3)ccc2nc1-c1ccccc1 (stereo unspecified) = > 10 µM
• Cc1c(F)c(N)c2c(=O)cc(-c3ccc(NC(=O)C(N)CCCN=C(N)N)c(F)c3)oc2c1F (stereo unspecified) = > 56 µM
• COc1ccc(C2=CN3CCC[C@H]3C=C2c2cc(O)c(OC)c(OC)c2)cc1OC = 0.115 µM
